# credit: patent US20050209278A1

target.system: MMP-9 (Homo sapiens, UniProt P14780)
Construct: made in house; host or cells: MMP-9-transfected HT1080 cells (spent media)
Sequence (P14780 107-707 limits assumed): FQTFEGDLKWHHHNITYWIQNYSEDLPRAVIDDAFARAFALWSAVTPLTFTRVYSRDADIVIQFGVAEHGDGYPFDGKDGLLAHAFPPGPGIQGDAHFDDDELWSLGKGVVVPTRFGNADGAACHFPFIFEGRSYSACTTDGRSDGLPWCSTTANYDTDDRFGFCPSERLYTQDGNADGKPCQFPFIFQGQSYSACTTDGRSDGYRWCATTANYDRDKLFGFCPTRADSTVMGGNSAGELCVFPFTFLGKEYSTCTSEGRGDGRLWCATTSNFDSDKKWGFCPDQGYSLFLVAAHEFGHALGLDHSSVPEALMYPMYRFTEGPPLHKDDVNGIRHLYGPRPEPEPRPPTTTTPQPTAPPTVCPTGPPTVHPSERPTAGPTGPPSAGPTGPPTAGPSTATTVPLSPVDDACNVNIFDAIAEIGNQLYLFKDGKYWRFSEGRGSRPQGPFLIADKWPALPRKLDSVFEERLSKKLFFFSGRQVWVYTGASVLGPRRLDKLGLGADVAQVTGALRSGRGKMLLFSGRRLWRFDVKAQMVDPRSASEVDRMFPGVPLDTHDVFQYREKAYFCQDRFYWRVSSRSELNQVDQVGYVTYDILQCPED
assay.text: In vitro MMP inhibition, Ki determination (fluorogenic substrate II)
Format: biochemical
experimental.setup: value outside parentheses
pKi: −log10 of the molar value.
parameter.measured: pKi

• CCCCc1ccc(C2(O)CCN(S(=O)(=O)C3(C(=O)NO)CCOCC3)CC2)nc1 = 7.10
• O=C(NO)C1(S(=O)(=O)N2CCN(c3ccc(OCC(F)(F)C(F)F)cc3)CC2)CCOCC1 [Example 326] = 8.69
• O=C(NO)C1(S(=O)(=O)N2CCN(c3ncc(-c4cccc(-c5ccccc5)c4)s3)CC2)CCOCC1 = 5.91

----------
target.system: MMP-13 (Homo sapiens, UniProt P45452)
Construct: made in house; host or cells: baculovirus / insect cells
assay.text: In vitro MMP inhibition, Ki determination (fluorogenic substrate II)
Format: biochemical
experimental.setup: value not in parenthesis; read-out: MMP-13 Ki
parameter.measured: log10 Ki (log10 of the value in nM)

* CCCCOc1ccc(N2CCN(S(=O)(=O)C3(C(=O)NO)CCN(CCOC)CC3)CC2)cn1 [Example 164] | 1.34
* CCCCCc1ccc(N2CCN(S(=O)(=O)C3(C(=O)NO)CCN(c4ncccn4)CC3)CC2)nc1 [Example 95] | -0.17
* CCCCOc1ccc(N2CCN(S(=O)(=O)C3(C(=O)NO)CCN(c4nc5ccccc5o4)CC3)CC2)cc1 [Example 150] | 1.05
* O=C(NO)C1(S(=O)(=O)N2CCN(c3cccc(C(F)(F)F)c3)CC2)CCOCC1 [Example 82] | 0.87
* CCCCOc1ccc(N2CCN(S(=O)(=O)C3(C(=O)NO)CCN(Cc4nccn4C)CC3)CC2)cc1 [Example 245] | -0.75
* CCCCOc1ccc(N2CCN(S(=O)(=O)C3(C(=O)NO)CCN(C(=O)N4CCOCC4)CC3)CC2)cc1 [Example 124] | -0.92
* CCCc1ccc(N2CCN(S(=O)(=O)C3(C(=O)NO)CCN(c4ccc(C)cc4)CC3)CC2)cc1 [Example 171] | 1.33
* CCCCOc1c(F)cc(N2CCN(S(=O)(=O)C3(C(=O)NO)CCN(CCOC)CC3)CC2)cc1F [Example 165] | 0.01
* O=C(NO)C1(S(=O)(=O)N2CCN(c3cnc(CCC(F)(F)F)cn3)CC2)CCOCC1 [Example 218] | 0.31
* O=C(NO)C1(S(=O)(=O)N2CCN(c3ccccn3)CC2)CCOCC1 [Example 169] | 0.27
* CC(C)COc1ccc(N2CCN(S(=O)(=O)C3(C(=O)NO)CCOCC3)CC2)cc1Cl [Example 79] | 0.82
* O=C(NO)C1(S(=O)(=O)N2CCN(c3cnc(CCCC(F)(F)F)cn3)CC2)CCOCC1 [Example 209] | 0.52
* CCCCOc1ccc(N2CCN(S(=O)(=O)C3(C(=O)NO)CCN(C(=O)N4CCCCC4)CC3)CC2)cc1 [Example 243] | -0.62
* O=C(NO)C1(S(=O)(=O)N2CCN(c3ccc(OCC(F)(F)C(F)(F)F)cc3)CC2)CCOCC1 [Example 212] | -0.52
* Cc1ccc(N2CCN(S(=O)(=O)C3(C(=O)NO)CCOCC3)CC2)nc1 [Example 138] | 0.06
* O=C(NO)C1(S(=O)(=O)N2CCN(c3ccc(OCCCCF)cc3)CC2)CCOCC1 [Example 89] | -0.77
* CCCCOc1ccc(N2CCN(S(=O)(=O)C3(C(=O)NO)CCN(C(=O)N(CC)CC)CC3)CC2)cc1 [Example 242] | -0.48
* CCCCOc1ccc(N2CCN(S(=O)(=O)C3(C(=O)NO)Cc4ccccc4C3)CC2)nc1 [Example 85] | -0.60
* C=CCCOC(=O)N1CCC(C(=O)NO)(S(=O)(=O)N2CCN(c3ccc(OCCCC)cc3)CC2)CC1 [Example 101] | -0.04
* CCCCc1ccc(C2CCN(S(=O)(=O)C3(C(=O)NO)CCN(CCOC)CC3)CC2)s1 [Example 55] | 0.60
* CCCCCCCCCc1cnc(N2CCN(S(=O)(=O)C3(C(=O)NO)CCOCC3)CC2)nc1 [Example 110] | 0.51
* CCCCOc1ccc(N2CCN(S(=O)(=O)C3(C(=O)NO)CCN(c4ccc(C#N)cc4)CC3)CC2)cc1 [Example 225] | 0.77
* CCCCOc1ccc(N2CCN(S(=O)(=O)C3(C(=O)NO)CCN(c4ccc5c(c4)OCO5)CC3)CC2)cc1 [Example 221] | 0.55
* C#CCOC(=O)N1CCC(C(=O)NO)(S(=O)(=O)N2CCN(c3ccc(OCCCC)cc3)CC2)CC1 [Example 98] | -0.42
* CCCCOc1ccc(N2CCN(S(=O)(=O)C3(C(=O)NO)CCN(Cc4ncc[nH]4)CC3)CC2)cc1 [Example 247] | -0.78
* CCCCCc1cnc(N2CCN(S(=O)(=O)C3(C(=O)NO)CCOCC3)CC2)s1 [Example 56] | 0.24
* CCC(C)Cc1ccc(N2CCN(S(=O)(=O)C3(C(=O)NO)CCN(CCOC)CC3)CC2)cc1 (stereo not shown) [Example 190] | -0.07
* CCCCOc1ccc(N2CCN(S(=O)(=O)C3(C(=O)NO)CCN(Cc4ccc(C)o4)CC3)CC2)cc1 [Example 246] | -0.40
* CCCCOc1ccc(N2CCN(S(=O)(=O)C3(C(=O)NO)CCN(c4nccs4)CC3)CC2)cc1 [Example 157] | 0.01
* O=C(NO)C1(S(=O)(=O)N2CCN(c3ccc(OCCCC(F)(F)F)cc3F)CC2)CCOCC1 [Example 81] | -0.58
* CC(C)CCOc1ccc(N2CCN(S(=O)(=O)C3(C(=O)NO)CCN(C4CC4)CC3)CC2)cc1 [Example 128] | -0.68

----------
List of log10 of Ki values.
target.system: MMP-9 (Homo sapiens)
Construct: made in house; host or cells: MMP-9-transfected HT1080 cells (spent media)
assay.text: MMP-9 inhibition (in vitro Ki)
Type: biochemical
experimental.setup: Table 9; read-out: MMP-9 Ki (IC-50)
parameter.measured: log10 of Ki (log10 of the value in nM)

- CN(C(=O)CCCC1CCN(S(=O)(=O)C2(C(=O)NO)CCOCC2)CC1)C1CCCCC1: 3.18
- CC(F)(F)COc1ccc(C2CCN(S(=O)(=O)C3(C(=O)NO)CCOCC3)CC2)nc1: 0.18
- O=C(NO)C1(S(=O)(=O)N2CCC(c3cnc(CCC4CC4)cn3)CC2)CCOCC1: 0.01
- O=C(NO)C1(S(=O)(=O)N2CCC(CCCc3nc(-c4ccc(OC(F)(F)F)cc4)no3)CC2)CCOCC1: 2.79
- COCCC(CCOC)(C(=O)NO)S(=O)(=O)N1CCC(c2ccc(CCC(F)(F)C(F)(F)F)cn2)CC1: -0.07
- C#CCN(C)C(=O)CCCCC1CCN(S(=O)(=O)C2(C(=O)NO)CCOCC2)CC1: 2.58
- O=C(NO)C1(S(=O)(=O)N2CCC(OCCCn3nnc(-c4ccc(OC(F)(F)F)cc4)n3)CC2)CCOCC1: 3.28
- O=C(CCCCC1CCN(S(=O)(=O)C2(C(=O)NO)CCOCC2)CC1)Nc1ccc(OC(F)(F)F)cc1: 2.67
- O=C(CCCCC1CCN(S(=O)(=O)C2(C(=O)NO)CCOCC2)CC1)N1CCOCC1: 2.74
- O=C(NO)C1(S(=O)(=O)N2CCN(c3ccc(CCCC(F)(F)F)cc3)CC2)CCN(CC(F)(F)F)CC1: 2.49
- O=C(CCCCC1CCN(S(=O)(=O)C2(C(=O)NO)CCOCC2)CC1)N1CCc2ccccc2C1: 1.82
- O=C(CCCCC1CCN(S(=O)(=O)C2(C(=O)NO)CCOCC2)CC1)N1CCCC1: 2.77
- O=C(CCCCC1CCN(S(=O)(=O)C2(C(=O)NO)CCOCC2)CC1)N1CCCCC1: 3.04
- CCN(C(=O)CCCC1CCN(S(=O)(=O)C2(C(=O)NO)CCOCC2)CC1)c1ccccc1: 1.63
- O=C(/C=C/C=C/C1CCN(S(=O)(=O)C2(C(=O)NO)CCOCC2)CC1)N1Cc2ccccc2C1: 3.92
- O=C(NO)C1(S(=O)(=O)N2CCC(c3ccc(-n4cccn4)cn3)CC2)CCOCC1: 1.10
- CCCC(F)(F)c1ccc(C2CCN(S(=O)(=O)C3(C(=O)NO)CCOCC3)CC2)nc1: 0.98
- O=C(CO)N1CCC(C(=O)NO)(S(=O)(=O)N2CCC(c3ccc(CCC(F)(F)C(F)(F)F)cn3)CC2)CC1: -0.40
- O=C(NO)C1(S(=O)(=O)N2CCC(c3ccc(OCC4CC4)cn3)CC2)CCOCC1: -0.44
- CCCCC#Cc1ccc(C2CCN(S(=O)(=O)C3(C(=O)NO)CCOCC3)CC2)nc1: -0.49
- O=C(NO)C1(S(=O)(=O)N2CCC(c3ccc(CCC(F)(F)C(F)(F)F)cn3)CC2)CCNCC1: 0.60
- Cn1cc(-c2ccc(C3CCN(S(=O)(=O)C4(C(=O)NO)CCOCC4)CC3)nc2)cn1: 1.23
- O=C(NO)C1(S(=O)(=O)N2CCC(c3cnc(CCC(F)(F)F)cn3)CC2)CCOCC1: 0.15
- O=C(NO)C1(S(=O)(=O)N2CCC(c3ccc(COCC4CC4)cn3)CC2)CCOCC1: -0.71
- COCC(=O)N1CCC(C(=O)NO)(S(=O)(=O)N2CCC(c3ccc(CCC(F)(F)C(F)(F)F)cn3)CC2)CC1: 1.43
- CSCCOc1ccc(C2CCN(S(=O)(=O)C3(C(=O)NO)CCOCC3)CC2)nc1: -0.57
- O=C(NO)C1(S(=O)(=O)N2CCC(c3ccc(CCC(F)F)cn3)CC2)CCOCC1: -0.65
- CC(F)(F)Cc1ccc(C2CCN(S(=O)(=O)C3(C(=O)NO)CCOCC3)CC2)nc1: 0.99
- O=C(/C=C/C=C/C1CCN(S(=O)(=O)C2(C(=O)NO)CCOCC2)CC1)N1C[C@H]2CCCC[C@H]2C1: 2.44
- CN(C(=O)CCCC1CCN(S(=O)(=O)C2(C(=O)NO)CCOCC2)CC1)c1ccccc1: 2.59
